system: U2OS; test: Incucyte cell viability with U2OS; format: toxicity, cell-based; conditions: human, 18 h, 10 µM, compound concentration 10 uM, replicate number 2, timepoint 18 hours; further: unitless GR value; below 1 slowed growth and below 0 cell loss
Short version: Growth Rate at least 0.9 is MET, less is NOT MET.

Below, 5 molecules whose answers are already recorded.
molecule | assayed_system | assigned_label
CN(C)CCCOc1ccc(-c2cc(NCCCn3cccn3)nc(S(C)(=O)=O)n2)cc1 | U2OS | NOT MET
O=C(Nc1cc(-c2cn[nH]c2)ccc1N1CCOCC1)c1ccc(-c2ccc3ncccc3c2)o1 | U2OS | NOT MET
Cc1ccc(C(C)(O)c2nc3ccccc3s2)c(C)c1 (stereo unspecified) | U2OS | MET
OCCCNc1cc(-c2ccnc(Nc3cccc(Cl)c3)n2)ccn1 | U2OS | NOT MET
Nc1nccc(-c2ccn3c(N)nccc23)n1 | U2OS | NOT MET

Asked: Hi team, for Cc1ccc(/C(=C\CN2CCCC2)c2ccccn2)cc1 [TRIPROLIDINE] , is the recorded Growth Rate at or above 0.9?
Given back: MET

Asked: For this molecule, is measured Growth Rate 0.9 or higher? O=c1nc2[nH]c3ccccc3nc-2c(=O)[nH]1 [ALLOXAZINE]
Given back: MET

Asked: Item N[C@@]1(C(=O)O)CC[C@H]2[C@H](C(=O)O)[C@H]21 with Growth Rate of 0.9 or above?
Given back: MET

Asked: Reported Growth Rate at or above 0.9? CC(C)c1cc(Oc2c(Cl)cc(-n3nc(C#N)c(=O)[nH]c3=O)cc2Cl)n[nH]c1=O [RESMETIROM]
Given back: NOT MET

* * *

Field: Growth Rate. Provide a value for each of the molecules that follow.
tested on: Fibroblast; experiment: Incucyte cell viability with human fibroblast; format: toxicity, cell-based; conditions: 24 h, 10 µM, compound concentration 10 uM, replicate number 1, timepoint 24 hours; further: unitless GR value; below 1 slowed growth and below 0 cell loss
Answers are plain numbers.

Use the examples below as a reference point.
smiles_entry | Growth Rate
C=CCNc1ncnc2ccc(Br)cc12 | 0.45
O=C(Nc1cc(C(F)(F)F)ccc1N1CCCCC1)c1ccncc1 | 0.59
CC(C)(C)c1ccc(S(=O)(=O)Nc2ccc(Cl)cc2C(=O)c2cc[n+]([O-])cc2)cc1 | 0.69

Asked: Give the measured Growth Rate of COc1cc2c(Oc3ccc(NC(=O)C4(C(=O)Nc5ccc(F)cc5)CC4)cc3F)ccnc2cc1OCCCN1CCOCC1 .
Given back: -0.88

* * *

system: HEK-293T; test: Incucyte cell viability with HEK293T; type: toxicity, cell-based; settings: human, 0 h, 10 µM, compound concentration 10 uM, replicate number 1, timepoint 0 hours; further: unitless GR value; below 1 slowed growth and below 0 cell loss
measurement_label: Growth Rate
Answers are plain numbers.

Past entries and their recorded results:
molecule | assayed_system | Growth Rate
Cc1ccc(F)cc1C(=O)Nc1ccc(C(=O)N2Cc3cccn3Cc3ccccc32)c(Cl)c1 | HEK-293T | 0.91
COc1cc(C(=O)N(CCCc2ccccc2)Cc2ccc(CC(=O)O)cc2)cc(OC)c1C | HEK-293T | 0.55
Nc1nc(CC(=O)Nc2ccc(CCNC[C@H](O)c3ccccc3)cc2)cs1 | HEK-293T | 0.8

Okay, here is my list. What is Growth Rate for each of these?
1. CCCCC[C@H](O)/C=C/[C@H]1CCC(=O)[C@@H]1CCCCCCC(=O)O
2. CC(C)Oc1ccc(-c2c[nH]cc2CN(C)CCO)cc1
3. CC(C)(C)c1ccc(CSc2cnn(C(C)(C)C)c(=O)c2Cl)cc1
4. O=C([O-])[C@H]1O[C@H](OP(=O)([O-])OP(=O)([O-])OC[C@H]2O[C@@H](n3ccc(=O)[nH]c3=O)[C@H](O)[C@@H]2O)[C@H](O)[C@@H](O)[C@@H]1O.[Na+].[Na+].[Na+]
5. CCCN(CCC)CCc1cccc2c1CC(=O)N2.Cl [ROPINIROLE HYDROCHLORIDE]
6. CCNC(=O)[C@H]1O[C@@H](n2cnc3c(N)nc(NCCc4ccc(CCC(=O)O)cc4)nc32)[C@H](O)[C@@H]1O.Cl

Given back:
1: 0.81; 2: 0.59; 3: 0.63; 4: 0.81; 5: 0.6; 6: 0.05

I need Growth Rate for every entry listed below, if you could help.
1. CN[C@@H](C)C(=O)N[C@H](C(=O)N1CCC[C@H]1C(=O)Nc1snnc1-c1ccccc1)C1CCCCC1
2. Nc1nc(Nc2ccccc2)nc2c1ncn2[C@@H]1O[C@H](CO)[C@@H](O)[C@H]1O
3. Cc1ccccc1-c1cc(N2CCN(C)CC2)ncc1N(C)C(=O)C(C)(C)c1cc(C(F)(F)F)cc(C(F)(F)F)c1
4. O=S(=O)(c1ccccc1)N(CC(F)(F)F)c1ccc(C(O)(C(F)(F)F)C(F)(F)F)cc1
5. O=C1NC(=Nc2c(Cl)cccc2Cl)S/C1=C\c1ccc2nccnc2c1
6. Cc1cc(Cn2nnc3c(-c4ccco4)nc(N)nc32)ccc1N
7. CN(C)CCn1cc(S(=O)(=O)c2cccc(F)c2)c2cccnc21.Cl.Cl
8. CS(=O)(=O)c1ccc(C(=O)Nc2ccc(Cl)c(-c3ccccn3)c2)c(Cl)c1

Given back:
1: 0.68; 2: 0.49; 3: 0.83; 4: 0.85; 5: 0.36; 6: 0.37; 7: 0.41; 8: 1

Dear colleague, could you please provide Growth Rate for the molecules listed below?
1. CNC[C@H](O)c1ccc(O)c(O)c1 [EPINEPHRINE]
2. O=C(Nc1cc(-c2ccccc2)nn1-c1ccccc1F)c1ccc([N+](=O)[O-])cc1
3. N#Cc1cc(F)cc(-c2nc(-c3ccc(F)cn3)no2)c1
4. Cl.NCCc1c[nH]c2ccc(O)cc12 [SEROTONIN HYDROCHLORIDE]

Given back:
0.03
0.97
0.85
0.58

Hi there! I need Growth Rate for each item below, if you can.
1. Brc1c(N=C2NCCN2)ccc2nccnc12.O=C(O)C(O)C(O)C(=O)O
2. COc1ccc(-n2c(C)c([N+](=O)[O-])c3ccc(O)cc32)cc1

Given back:
1: 0.76; 2: 0.39
